- ASSAY_EXPLANATION: Quantitative High-Throughput drug screen in 47 multiple myeloma cell lines against the NCATS MIPE library collection: KMS28PE_JCRB cell viability assay (AID 1918983); further: nearly all actives have a fitted effect of over 35% in size
- EXPERIMENTAL_CONTEXT: KMS28PE multiple myeloma viability, CellTiter-Glo ATP, 48 h; series mostly up to 45.8 µM
Records with an inconclusive call do not appear. Active and inactive are the calls of the source. The call rests on the fitted dose curve; in most records, active means well fitted cell-killing curve with a large enough effect; inconclusive means small, poorly fitted or top-dose-only effect, or effect the other way; inactive means no such curve, though single readings can be large or run the other way.
Outcome codes: active, inactive

>>> cat("Oc1c(Cl)cc(Cl)c2cccnc12")
"active"
>>> cat("COc1ccc(-c2ccc3cc(C(=O)O)ccc3c2)cc1C12CC3CC(CC(C3)C1)C2")
"inactive"
>>> cat("COc1cc2c(Nc3ccc(Br)cc3F)ncnc2cc1OCC1CCN(C)CC1")
"active"
>>> cat("CN1CCCC(n2nc(Cc3ccc(Cl)cc3)c3ccccc3c2=O)CC1 (stereo not given)")
"active"
>>> cat("Cc1cccc(Nc2ccncc2S(=O)(=O)NC(=O)NC(C)C)c1")
"inactive"
>>> cat("COc1ncnc(NS(=O)(=O)c2ccc(N)cc2)c1OC")
"inactive"
>>> cat("COc1ccc2cc3[n+](cc2c1OC)CCc1cc2c(cc1-3)OCO2")
"active"
>>> cat("CC(C)(Sc1cc(C(C)(C)C)c(O)c(C(C)(C)C)c1)Sc1cc(C(C)(C)C)c(O)c(C(C)(C)C)c1")
"inactive"
>>> cat("COc1cc2nc(N3CCCN(C)CC3)nc(NC3CCN(Cc4ccccc4)CC3)c2cc1OC")
"active"
>>> cat("OC(Cn1cncn1)(Cn1cncn1)c1ccc(F)cc1F")
"inactive"
>>> cat("CC(C)C[C@H](NC(=O)[C@H](CCc1ccccc1)NC(=O)CN1CCOCC1)C(=O)N[C@@H](Cc1ccccc1)C(=O)N[C@@H](CC(C)C)C(=O)[C@@]1(C)CO1")
"active"
>>> cat("CCCCCCNC(=O)n1cc(F)c(=O)[nH]c1=O")
"inactive"
>>> cat("CN(Cc1cc(Br)cc(Br)c1N)C1CCCCC1")
"inactive"
>>> cat("O=C(O)c1cc(=O)[nH]c(=O)[nH]1")
"active"
>>> cat("CCC(=O)O[C@]1(C(=O)SCF)[C@H](C)C[C@H]2[C@@H]3C[C@H](F)C4=CC(=O)C=C[C@]4(C)[C@@]3(F)[C@@H](O)C[C@@]21C")
"inactive"
>>> cat("O=c1oc2c(O)c(O)cc3c(=O)oc4c(O)c(O)cc1c4c23")
"inactive"
>>> cat("COc1ccc2c(c1)c(CC(=O)OCC(=O)O)c(C)n2C(=O)c1ccc(Cl)cc1")
"inactive"
>>> cat("Cc1cc(NS(=O)(=O)c2ccc(N)cc2)no1")
"inactive"
>>> cat("CC1=C(C(=O)O)N2C(=O)[C@@H](NC(=O)C(N)c3ccccc3)[C@H]2SC1 (stereo not given in full)")
"inactive"
>>> cat("CCn1cc(C(=O)O)c(=O)c2cc(F)c(N3CCNCC3)cc21")
"active"
>>> cat("CCOc1cc(N)c(Cl)cc1C(=O)NCC1CN(Cc2ccc(F)cc2)CCO1 (stereo not given)")
"inactive"
>>> cat("CCCOc1ccc(C(=O)OCCN(CC)CC)cc1N")
"inactive"
>>> cat("COCCCOc1cc(C[C@@H](C[C@H](N)[C@@H](O)C[C@H](C(=O)NCC(C)(C)C(N)=O)C(C)C)C(C)C)ccc1OC")
"inactive"
>>> cat("O=C(O)c1cccnc1")
"inactive"
>>> cat("NC(=O)c1cccc(N)c1")
"inactive"
>>> cat("CCN[C@H]1C[C@H](C)S(=O)(=O)c2sc(S(N)(=O)=O)cc21")
"inactive"
>>> cat("CCOC(=O)[C@H](CCc1ccccc1)N[C@H]1CS[C@H](c2cccs2)CN(CC(=O)O)C1=O")
"active"
>>> cat("NC(=O)c1cccnc1")
"inactive"
>>> cat("O=C(O)c1cn(C2CC2)c2cc(N3CCNCC3)c(F)cc2c1=O")
"inactive"
>>> cat("Cc1ccc(S(=O)(=O)N[C@@H](Cc2ccccc2)C(=O)CCl)cc1")
"active"
>>> cat("Nc1nc(F)nc2c1ncn2[C@@H]1O[C@H](CO)[C@@H](O)[C@@H]1O")
"active"
>>> cat("COC(=O)Nc1nc2ccc(Sc3ccccc3)cc2[nH]1")
"active"
>>> cat("O=NN(CCCl)C(=O)NC1CCCCC1")
"inactive"
>>> cat("CN1CCN(c2c(F)cc3c(=O)c(C(=O)O)cn(CCF)c3c2F)CC1")
"inactive"
>>> cat("OCc1ccc(-c2nn(Cc3ccccc3)c3ccccc23)o1")
"inactive"
>>> cat("COC(c1ccccc1)(c1ccccc1)[C@H](Oc1nc(C)cc(C)n1)C(=O)O")
"inactive"
>>> cat("Nc1nc(N)c2nc(CNc3ccc(C(=O)NC(CCC(=O)O)C(=O)O)cc3)cnc2n1 (stereo not given)")
"inactive"
>>> cat("CCOC(=O)[C@H](CCc1ccccc1)N[C@H]1CCc2ccccc2N(CC(=O)O)C1=O")
"active"
>>> cat("COc1cc2ncnc(Nc3cccc(Cl)c3)c2cc1OC")
"active"
>>> cat("COc1cc(NS(=O)(=O)c2ccc(N)cc2)nc(OC)n1")
"inactive"
>>> cat("CCc1c2c(nc3ccc(OC(=O)N4CCC(N5CCCCC5)CC4)cc13)-c1cc3c(c(=O)n1C2)COC(=O)[C@]3(O)CC")
"active"
>>> cat("COc1cc(NCc2ccc3nc(N)nc(N)c3c2C)cc(OC)c1OC")
"active"
>>> cat("Cc1nnc(C(=O)NC(C)(C)c2nc(C(=O)NCc3ccc(F)cc3)c(O)c(=O)n2C)o1")
"inactive"
>>> cat("NCCCC(O)(P(=O)(O)O)P(=O)(O)O")
"inactive"
>>> cat("CCCCOc1ccc(CC(=O)NO)cc1")
"active"

====

- ASSAY_EXPLANATION: qHTS for identification of novel therapeutic agents for treatment of microphthalmiaassociated transcription factor (MiT) renal cell carcinoma (RCC) (AID 1963991);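 further: curves scaled with 100% = DMSO viability and 0% = empty wells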
- EXPERIMENTAL_CONTEXT: TFE3-RCC viability, CellTiter-Glo, 48 h; measured here: UOK124 Z-AUC; stronger effect = lower value
Records with an inconclusive call do not appear.
Listed below: z-score values for each entry.
RESULT_TYPE: z-score

>>> measured("CNS(=O)(=O)Cc1ccc2[nH]cc(CCN(C)C)c2c1")
0.938
>>> measured("O=C(O)c1cccnc1")
0.528
>>> measured("OC(Cn1cncn1)(Cn1cncn1)c1ccc(F)cc1F")
0.906
>>> measured("CN(C)CCc1c[nH]c2ccc(CS(=O)(=O)N3CCCC3)cc12")
-0.106
>>> measured("Nc1nc(N)nc(-c2cc(Cl)ccc2Cl)n1")
0.434
>>> measured("Cn1c(=O)c2c(ncn2CC(O)CO)n(C)c1=O (stereo not drawn)")
0.351
>>> measured("NNC(=O)c1ccncc1")
0.222
>>> measured("CN(C)c1ccc(C(=C2C=CC(=[N+](C)C)C=C2)c2ccc(N(C)C)cc2)cc1")
-2.26
>>> measured("COc1nc(N)nc2c1ncn2[C@@H]1O[C@H](CO)[C@@H](O)[C@@H]1O")
1.01
>>> measured("COCCCOc1cc(C[C@@H](C[C@H](N)[C@@H](O)C[C@H](C(=O)NCC(C)(C)C(N)=O)C(C)C)C(C)C)ccc1OC")
0.318
>>> measured("CCn1cc(C(=O)O)c(=O)c2cc(F)c(N3CCNCC3)nc21")
-0.25
>>> measured("CCOC(=O)c1ccc(OC(=O)CCCCCN=C(N)N)cc1")
0.137
>>> measured("Cc1cccc(Nc2ccncc2S(=O)(=O)NC(=O)NC(C)C)c1")
0.17

====

- ASSAY_EXPLANATION: Quantitative High-Throughput drug screen in 47 multiple myeloma cell lines against the NCATS MIPE library collection: MM1R_ATCC cell viability assay (AID 1918981); further: nearly all actives have a fitted effect of over 35% in size; further: potency means the concentration at half of the fitted maximal effect
- EXPERIMENTAL_CONTEXT: MM1R multiple myeloma cells, CellTiter-Glo viability, 48 h; series mostly up to 45.8 µM
Results filed as inconclusive are left out. Active and inactive are the calls of the source. Calls follow the shape of the dose curve; as a rule, active = well fitted cell-killing curve with a large enough effect; inconclusive = small, poorly fitted or top-dose-only effect, or effect the other way; inactive = no such curve, though single readings can be large or run the other way.
RESULT_TYPE: Potency

>>> measured("CCCCCCNC(=O)n1cc(F)c(=O)[nH]c1=O")
"4.18 µM (active)"
>>> measured("CC1(C)[C@H](C(=O)O)N2C(=O)C[C@H]2S1(=O)=O")
"inactive"
>>> measured("COc1cccc(N(C)C(=S)Oc2ccc3c(c2)CCCC3)n1")
"inactive"
>>> measured("CC(C)C[C@H](NC(=O)[C@H](CCc1ccccc1)NC(=O)CN1CCOCC1)C(=O)N[C@@H](Cc1ccccc1)C(=O)N[C@@H](CC(C)C)C(=O)[C@@]1(C)CO1")
"0.0037 µM (active)"
>>> measured("NC1(c2ccc(-c3nc4ccn5c(=O)[nH]nc5c4cc3-c3ccccc3)cc2)CCC1")
"5.26 µM (active)"
>>> measured("O=C(NCC1CN(c2ccc(N3CCOCC3=O)cc2)C(=O)O1)c1ccc(Cl)s1 (stereo not drawn)")
"inactive"
>>> measured("Cn1c(=O)c2c(ncn2CC(O)CO)n(C)c1=O (stereo not drawn)")
"inactive"
>>> measured("Nc1ccc(S(=O)(=O)Nc2ccccn2)cc1")
"inactive"
>>> measured("NS(=O)(=O)c1cc2c(cc1Cl)NC(C(Cl)Cl)NS2(=O)=O (stereo not drawn)")
"inactive"
>>> measured("CNC1CCCN(c2c(F)cc3c(=O)c(C(=O)O)cn(C4CC4)c3c2OC)C1 (stereo not drawn)")
"inactive"
>>> measured("NNC(=O)c1ccncc1")
"inactive"
>>> measured("Cc1nnc(NS(=O)(=O)c2ccc(N)cc2)s1")
"18.7 µM (active)"
>>> measured("CCCCOc1ccc(CC(=O)NO)cc1")
"8.33 µM (active)"
>>> measured("CC(C)NCC(O)c1ccc(NS(C)(=O)=O)cc1 (stereo not drawn)")
"inactive"
>>> measured("C[C@@H]1C[C@H]2[C@@H]3CCC4=CC(=O)C=C[C@]4(C)[C@@]3(Cl)[C@@H](O)C[C@]2(C)[C@@]1(OC(=O)c1ccco1)C(=O)CCl")
"16.6 µM (active)"
>>> measured("O=NN(CCCl)C(=O)NC1CCCCC1")
"inactive"
>>> measured("COc1cnc(NS(=O)(=O)c2ccc(N)cc2)nc1")
"inactive"
>>> measured("CCc1c2c(nc3ccc(OC(=O)N4CCC(N5CCCCC5)CC4)cc13)-c1cc3c(c(=O)n1C2)COC(=O)[C@]3(O)CC")
"1.05 µM (active)"
>>> measured("Cn1nnc2c(C(N)=O)ncn2c1=O")
"inactive"
>>> measured("CNCC[C@H](Oc1cccc2ccccc12)c1cccs1")
"14.8 µM (active)"
>>> measured("Nc1[nH]c(=O)ncc1F")
"inactive"
>>> measured("CCn1cc(C(=O)O)c(=O)c2cc(F)c(N3CCN(C)CC3)cc21")
"inactive"
>>> measured("Cc1cccc(N(C)C(=S)Oc2ccc3ccccc3c2)c1")
"inactive"
